Values from paper PMC4126480

- assay_system: CYP1A2 (Homo sapiens, UniProt P05177)
- Construct: purchased BD Gentest (Woburn, MA, USA); host or cells: baculovirus expression system
- Sequence (P05177 whole entry): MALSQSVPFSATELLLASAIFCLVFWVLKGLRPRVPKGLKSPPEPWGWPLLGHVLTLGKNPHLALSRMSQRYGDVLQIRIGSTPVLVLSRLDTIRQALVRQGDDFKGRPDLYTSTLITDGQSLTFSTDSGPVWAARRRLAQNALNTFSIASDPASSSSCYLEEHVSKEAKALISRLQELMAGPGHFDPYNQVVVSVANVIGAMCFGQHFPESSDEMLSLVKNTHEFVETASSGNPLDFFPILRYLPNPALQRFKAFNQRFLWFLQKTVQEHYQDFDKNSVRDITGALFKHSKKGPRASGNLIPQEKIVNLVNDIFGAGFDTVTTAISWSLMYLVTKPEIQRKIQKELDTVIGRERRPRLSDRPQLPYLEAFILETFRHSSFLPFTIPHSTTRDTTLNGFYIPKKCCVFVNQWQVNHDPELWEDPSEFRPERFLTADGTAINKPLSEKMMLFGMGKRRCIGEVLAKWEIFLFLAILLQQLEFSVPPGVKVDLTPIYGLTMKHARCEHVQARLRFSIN
- assay_details: Prediction of in vivo HDI from in vitro results, CYP1A2
- experimental_context: CYP1A2; IC50 compared with estimated GIT and plasma concentrations
endpoint_label: Likelihood of causing HDI

>  <compound>
CCCC/C=C\CCCCCCCCCc1cc(O)cc(OC)c1 [Belamcandol B]

>  <endpoint_value>
unlikely

$$$$
>  <compound>
CCCC/C=C\CCCCCCCCCC1=C(c2c(O)cc(O)cc2CCCCCCCCC/C=C\CCCC)C(=O)C=C(OC)C1=O [Demethylbelamcandaquinone B]

>  <endpoint_value>
unlikely

$$$$
>  <compound>
CCCC/C=C\CCCCCCCCCc1cc(O)cc2oc3cc(OC)c(O)c(CCCCCCCCC/C=C\CCCC)c3c12 [Fatimahol]

>  <endpoint_value>
unlikely

$$$$

* * *

- assay_system: CYP3A4 (Homo sapiens, UniProt P08684)
- Construct: purchased BD Gentest (Woburn, MA, USA); host or cells: baculovirus expression system
- Sequence (P08684 whole entry): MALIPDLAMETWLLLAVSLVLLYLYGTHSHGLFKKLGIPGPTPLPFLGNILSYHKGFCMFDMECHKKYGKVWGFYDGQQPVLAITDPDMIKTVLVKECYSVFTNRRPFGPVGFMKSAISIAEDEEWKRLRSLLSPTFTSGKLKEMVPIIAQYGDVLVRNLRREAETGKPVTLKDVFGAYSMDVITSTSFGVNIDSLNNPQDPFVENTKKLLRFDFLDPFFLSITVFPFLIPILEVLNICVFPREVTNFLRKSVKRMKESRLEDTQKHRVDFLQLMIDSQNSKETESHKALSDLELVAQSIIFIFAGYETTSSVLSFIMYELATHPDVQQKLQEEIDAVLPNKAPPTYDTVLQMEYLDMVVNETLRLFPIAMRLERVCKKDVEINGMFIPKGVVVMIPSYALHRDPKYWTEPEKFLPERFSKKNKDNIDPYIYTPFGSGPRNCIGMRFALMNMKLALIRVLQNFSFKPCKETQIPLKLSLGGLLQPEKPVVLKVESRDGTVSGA
- assay_details: Prediction of in vivo HDI from in vitro results, CYP3A4
- experimental_context: CYP3A4; IC50 compared with estimated GIT and plasma concentrations
- Description: All assumptions to predict the HDI potential of KF methanolic extract and its constituents were according to previously published report ([Awortwe et al., 2014]). The % yield was calculated from the amounts extracted from the KF roots ([Ali and Khan, 2011]). […]
endpoint_label: Likelihood of causing HDI

>  <molecular_string>
CCCC/C=C\CCCCCCCCCC1=C(c2c(O)cc(O)cc2CCCCCCCCC/C=C\CCCC)C(=O)C=C(OC)C1=O

>  <assay_system>
CYP3A4 (Homo sapiens, UniProt P08684)

>  <endpoint_value>
unlikely

$$$$
>  <molecular_string>
CCCC/C=C\CCCCCCCCCc1cc(O)cc2oc3cc(OC)c(O)c(CCCCCCCCC/C=C\CCCC)c3c12

>  <assay_system>
CYP3A4 (Homo sapiens, UniProt P08684)

>  <endpoint_value>
unlikely

$$$$

* * *

The following compounds are shown together with reported Estimated GIT concentration values.
- assay_details: Estimation of concentration per dose, GIT and plasma concentrations (560 mg KF extract dose)
- Parameters: species or system human
- experimental_context: 560 mg dose, human GIT volume 250 mL

>  <compound>
CC1(C)[C@@H](O[C@@H]2OC[C@H](O[C@@H]3O[C@H](CO)[C@@H](O)[C@H](O)[C@H]3O[C@@H]3OC[C@@H](O)[C@H](O)[C@H]3O)[C@H](O)[C@H]2O)CC[C@]2(C)[C@H]3CC[C@]45OC[C@@]6(CC[C@](C)(C=O)C[C@H]64)[C@H](O)C[C@@]5(C)[C@]3(C)CC[C@@H]12

>  <Estimated GIT concentration [µg/mL]>
0.31

$$$$
>  <compound>
CCCC/C=C\CCCCCCCCCC1=C(c2c(O)cc(O)cc2CCCCCCCCC/C=C\CCCC)C(=O)C=C(OC)C1=O

>  <Estimated GIT concentration [µg/mL]>
27.1

$$$$
>  <compound>
CCCC/C=C\CCCCCCCCCc1cc(O)cc(O)c1 [5-[10(Z)-pentadecenyl]resorcinol]

>  <Estimated GIT concentration [µg/mL]>
27.1

$$$$
>  <compound>
C[C@@H]1O[C@@H](O[C@H]2[C@H](O[C@H]3CO[C@@H](O[C@H]4CC[C@]5(C)[C@H]6CC[C@]78OC[C@@]9(CC[C@](C)(C=O)C[C@H]97)C(=O)C[C@@]8(C)[C@]6(C)CC[C@H]5C4(C)C)[C@H](O)[C@H]3O)O[C@H](CO)[C@@H](O)[C@@H]2O)[C@H](O)[C@H](O)[C@H]1O [Ardisimamilloside H]

>  <Estimated GIT concentration [µg/mL]>
0.047

$$$$
>  <compound>
CCCC/C=C\CCCCCCCCCc1cc(O)cc2oc3cc(OC)c(O)c(CCCCCCCCC/C=C\CCCC)c3c12

>  <Estimated GIT concentration [µg/mL]>
0.20

$$$$
>  <compound>
CCCC/C=C\CCCCCCCCCc1cc(O)cc(OC)c1

>  <Estimated GIT concentration [µg/mL]>
13.64

$$$$
